viability, T/C values for the molecules below.
- Test system: 475296-252-R-J1-PDC spheroid viability;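 also: spheroids exposed to agents for seven days before readout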
- Assay overview: Anticancer human tumor 475296-252-R-J1-PDC patient-derived rectal carcinoma cell line growth inhibition [PI3K]
- Condition description: second compound 0.00316 µM; first compound 0.0316 µM; active compounds read low; spheroids with HUVEC and MSC
Note: unit % is implicit; provide only the numeric part.

Identify the reported viability, T/C for the following entry. C#Cc1c(F)ccc2cc(O)cc(-c3ncc4c(N5CC6CCC(C5)N6)nc(OCC56CCCN5CC(F)C6)nc4c3F)c12 (stereo not drawn) + COc1c(OCCCN2CCOCC2)ccc2c3n(c(=NC(=O)c4cnc(N)nc4)nc12)CCN3
85.9

Identify the reported viability, T/C for the following entry. C#Cc1c(F)ccc2cc(O)cc(-c3ncc4c(N5CC6CCC(C5)N6)nc(OCC56CCCN5CC(F)C6)nc4c3F)c12 (stereo not drawn) + CC(Nc1ccc2c(c1)OCCn1cc(N3C(=O)OCC3C(F)F)nc1-2)C(N)=O
104

Identify the reported viability, T/C for the following entry. CC(C)n1nc(-c2ccc3oc(N)nc3c2)c2c(N)ncnc21 + CC(Nc1ccc2c(c1)OCCn1cc(N3C(=O)OCC3C(F)F)nc1-2)C(N)=O
74.9
